- Test system: MRP2
- assayProtocol: Apparent permeability from apical to basolateral side of MRP2 knockdown human Caco2 cells at 10 uM up to 120 mins by reverse-phase liquid chromatography with triple-quadrupole tandem mass spectrometry analysis
- Type: ADME, cell-based, Caco-2
For each of the compounds below, state its Papp A→B at 2 h, 10 µM.
Answers are plain numbers, in ×10⁻⁶ cm/s.

{"compound": "O=C1OC(c2ccc(O)c(S(=O)(=O)[O-])c2)(c2ccc(O)c(S(=O)(=O)[O-])c2)c2c(Br)c(Br)c(Br)c(Br)c21.[Na+].[Na+] [SULFOBROMOPHTHALEIN SODIUM]", "Papp A→B at 2 h, 10 µM, ×10⁻⁶ cm/s": 0.34}

Now for a further compound.
Looking up C[C@]12CC[C@@H]3c4ccc(OS(=O)(=O)O)cc4CC[C@H]3[C@@H]1CCC2=O , I found its Papp A→B at 2 h, 10 µM recorded as 0.54
